Experiment description: Intrinsic clearance in rat liver microsomes
Format: ADME
Experimental setup: read-out: CLH
Listing of recorded microsomal CLint by entry.

{"Compound smiles": "COc1ccc2c(O[C@H]3C[C@H]4C(=O)N(C)CCCC/C=C/[C@@H]5C[C@@]5(C(=O)NS(=O)(=O)C5(C)CC5)NC(=O)N4C3)cc(-c3nc(C(C)C)cs3)nc2c1Cl", "microsomal CLint": "9.7 µL/min/mg"}
{"Compound smiles": "COc1ccc2c(OC[C@@H]3C[C@H]4C(=O)N(C)CCCC/C=C/[C@@H]5C[C@@]5(C(=O)NS(=O)(=O)C5(C)CC5)NC(=O)N34)cc(-c3nc(C(C)C)cs3)nc2c1C", "microsomal CLint": "364 µL/min/mg"}
{"Compound smiles": "COc1ccc2c(O[C@H]3C[C@H]4C(=O)N(C)CCCC/C=C/[C@@H]5C[C@@]5(C(=O)NS(=O)(=O)C5(C)CC5)NC(=O)N4C3)cc(-c3nc(C(C)C)cs3)nc2c1C", "microsomal CLint": "12.6 µL/min/mg"}
{"Compound smiles": "COc1ccc2c(OC[C@@H]3C[C@H]4C(=O)N(C)CCCC/C=C/[C@@H]5C[C@@]5(C(=O)NS(=O)(=O)C5(C)CC5)NC(=O)N34)cc(-c3nc(C(C)C)cs3)nc2c1Cl", "microsomal CLint": "182 µL/min/mg"}
{"Compound smiles": "COc1ccc2c(O[C@H]3C[C@H]4C(=O)N(C)CCCC/C=C/[C@@H]5C[C@@]5(C(=O)NS(=O)(=O)C5CC5)NC(=O)N4C3)cc(-c3csc(C(F)(F)F)n3)nc2c1C", "microsomal CLint": "23.7 µL/min/mg"}
{"Compound smiles": "COc1ccc2c(O[C@H]3C[C@H]4C(=O)N(C)CCCC/C=C/[C@@H]5C[C@@]5(C(=O)NS(=O)(=O)C5(C)CC5)NC(=O)N4C3)cc(-c3nc(C(F)(F)F)cs3)nc2c1C", "microsomal CLint": "11.4 µL/min/mg"}
